Below are IC50 measurements against CK1 α (Homo sapiens, UniProt P48729) drawn from the literature.
Sequence (P48729 whole entry): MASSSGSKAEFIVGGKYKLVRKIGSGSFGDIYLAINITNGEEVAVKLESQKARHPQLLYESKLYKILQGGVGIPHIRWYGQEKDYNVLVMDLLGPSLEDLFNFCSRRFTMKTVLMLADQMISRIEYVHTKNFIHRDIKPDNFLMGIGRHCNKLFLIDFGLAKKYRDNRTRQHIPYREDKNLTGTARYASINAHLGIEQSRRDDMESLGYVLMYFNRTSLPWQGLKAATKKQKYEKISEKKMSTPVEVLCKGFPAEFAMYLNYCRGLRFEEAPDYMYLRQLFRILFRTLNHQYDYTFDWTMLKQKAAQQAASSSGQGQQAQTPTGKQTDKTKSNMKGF
recorded.metric: IC50 (nM)

                                   compound  unit_annotation  observed_measurement
0  Fc1ccc(-c2nc3ccc(N4CCNCC4)nn3c2-c2ccncc2)cc1               nM                    33
1  COCCN1Cc2nccc(-c3cn(C)nc3-c3ccc(F)cc3)c2C1=O               nM                  2590
2  CC1(C)CN(c2ccc3nc(-c4ccc(F)cc4)c(-c4ccncc4)n3n2)CCN1               nM                    30
3  CC1CN(C)C(=O)c2c1[nH]c(-c1ccnc(NC(=O)C(CC(F)F)c3ccc(F)cc3)c1)c2-c1ccc(F)cc1 (stereo not shown)               nM                   4.3
